Target: siaT (Haemophilus influenzae)
Sequence (P44542 24-329): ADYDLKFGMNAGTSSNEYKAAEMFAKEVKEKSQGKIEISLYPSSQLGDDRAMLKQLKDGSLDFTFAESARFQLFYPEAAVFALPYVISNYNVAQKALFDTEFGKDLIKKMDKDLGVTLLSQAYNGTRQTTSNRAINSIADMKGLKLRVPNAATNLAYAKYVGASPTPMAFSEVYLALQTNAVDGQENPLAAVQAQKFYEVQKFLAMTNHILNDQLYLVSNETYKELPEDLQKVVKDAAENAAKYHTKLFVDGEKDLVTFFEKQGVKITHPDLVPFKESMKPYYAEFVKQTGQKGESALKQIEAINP
METRIC_NAME: Kd (µM)
Lab book: enter the figure in µM, no units written.

I looked up CC(=O)N[C@H]1[C@H]([C@H](O)[C@H](O)CO)OC(O)(C(=O)O)C[C@@H]1O (stereo partly shown) and its Kd for siaT (Haemophilus influenzae) was 0.017
